Experiment: compound autofluorescence in calcium buffer – biochemical, fluorescence, no RTF in test wells, artefact control for cardiac thin filament activator project, dose response (AID 504697);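 further: emission near 535 nm under roughly 485 nm excitation as for IANBD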
Conditions: compound-only fluorescence in RTF assay buffer with Ca2+ (no RTF in test wells), artifact counterscreen
Calls of active or inactive are those of the source.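 How the source made its calls: active means EC50 at or below 10 µM; inactive means EC50 above 10 µM.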
quantity: EC50

Short answer for "O=C(NCc1ccc(Cl)cc1)C1CCN(c2cnccn2)CC1" : EC50 was > 71.4 µM (inactive)

Short answer for "CN1C(=O)/C(=C/C=C2\SCCN2C)OC1=S" : EC50 was 15.9 µM (inactive)

====

Test: compound autofluorescence in calcium buffer – biochemical, fluorescence, no RTF in test wells, artefact control for cardiac thin filament activator project, dose response (AID 504697);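 further: emission near 535 nm under roughly 485 nm excitation as for IANBD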
Conditions: compound-only fluorescence in RTF assay buffer with Ca2+ (no RTF in test wells), artifact counterscreen
Activity calls are given as the source filed them.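 Rule for the calls: active = EC50 at or below 10 µM; inactive = EC50 above 10 µM.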
quantity: EC50

The following compounds have reported results that may help.
COc1c(O)cccc1-c1nnn(CCC(=O)OCC(=O)c2ccccc2)n1 : > 71.5 µM (inactive)
Cn1cnnc1Sc1nc2ccccc2nc1NS(=O)(=O)c1ccccc1 : > 71.5 µM (inactive)

Short answer for "CCN(CC(=O)Nc1ccccc1C(F)(F)F)C(=O)c1ccc(-n2nc(C)c(CCC(=O)OC)c2C)cc1" : EC50 was > 71.5 µM (inactive)

====

Assay: compound autofluorescence in calcium buffer – biochemical, fluorescence, no RTF in test wells, artefact control for cardiac thin filament activator project, dose response (AID 504697);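 further: emission near 535 nm under roughly 485 nm excitation as for IANBD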
Details: compound-only fluorescence in RTF assay buffer with Ca2+ (no RTF in test wells), artifact counterscreen
Calls of active or inactive are those of the source.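 Rule for the calls: active = EC50 at or below 10 µM; inactive = EC50 above 10 µM.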
# valid calls are YES (active), NO (inactive); nothing else

Worked examples follow.
Cc1ccc(N2C(=O)C3C(C(=O)c4ccccc4)=NN(c4ccccc4)C3C2=O)cc1 (centres undefined) : NO
Oc1ccc2ccc3cccc[n+]3c2c1 : YES
S=C(Nc1cc(Cl)ccc1Oc1ccccc1)N1CCN(c2ccccn2)CC1 : NO

Then this compound:
Input line: Give the logged outcome of this assay for the following compound: "COc1ccc(NC(=O)/C(C#N)=C\c2ccc(N3CCOCC3)o2)cc1"
Output line: YES
